# assay summary: Concentration in plasma (portal) following oral dose in rats at 0.25 hr
# Assay type: ADME, organism-based
# condition description: rat
measured property: concentration at 0.25 h (nM)
Kindly answer with a numeric value in nM, unit omitted.

Provide only the value of recorded concentration at 0.25 h for CCCOc1ccc(Br)cc1-c1cc(-c2ccc(Cl)cc2)[nH]c1-c1ccncc1
25

---

# assay summary: Selectivity ratio between the binding value of human glucagon receptor (GGR) with Mg+2 and the value of p38 kinase
measured property: Ratio

Provide only the value of recorded Ratio for Fc1ccc(-c2cc(-c3ccc(F)cc3)c(-c3ccncc3)[nH]2)cc1
1

Provide only the value of recorded Ratio for Clc1ccc(-c2cc(-c3ccc(Cl)cc3)c(-c3ccncc3)[nH]2)cc1
5

Provide only the value of recorded Ratio for N#Cc1ccc(-c2cc(-c3ccc(F)cc3)c(-c3ccncc3)[nH]2)cc1
102

Provide only the value of recorded Ratio for CCCOc1ccc(Br)cc1-c1cc(-c2ccc(Cl)cc2)[nH]c1-c1ccncc1
0.12

Provide only the value of recorded Ratio for COc1ccccc1-c1cc(-c2ccc(Cl)cc2)[nH]c1-c1ccncc1
0.18

Provide only the value of recorded Ratio for Fc1ccc(-c2cc(-c3cccc(Cl)c3)[nH]c2-c2ccncc2)cc1
2.3

Provide only the value of recorded Ratio for Clc1ccc(-c2cc(-c3cccc(Br)c3)c(-c3ccncc3)[nH]2)cc1
21.2

Provide only the value of recorded Ratio for Clc1ccc(-c2cc(-c3ccccc3Br)c(-c3ccncc3)[nH]2)cc1
2.3

Provide only the value of recorded Ratio for CCCOc1ccccc1-c1cc(-c2ccc(Cl)cc2)[nH]c1-c1ccncc1
0.05

Provide only the value of recorded Ratio for Clc1ccc(-c2cc(-c3ccccc3)c(-c3ccncc3)[nH]2)cc1
1.8

---

# assay summary: Concentration in plasma (systemic) following oral dose in mouse at 0.25 hr
# Type: ADME, organism-based
measured property: concentration at 0.25 h (nM)
Kindly answer with a numeric value in nM, unit omitted.

Provide only the value of recorded concentration at 0.25 h for CCCOc1ccc(Br)cc1-c1cc(-c2ccc(Cl)cc2)[nH]c1-c1ccncc1
1700

---

# tested on: Mitogen-activated protein kinase 14 (Homo sapiens, UniProt Q16539)
# Sequence (Q16539 whole entry): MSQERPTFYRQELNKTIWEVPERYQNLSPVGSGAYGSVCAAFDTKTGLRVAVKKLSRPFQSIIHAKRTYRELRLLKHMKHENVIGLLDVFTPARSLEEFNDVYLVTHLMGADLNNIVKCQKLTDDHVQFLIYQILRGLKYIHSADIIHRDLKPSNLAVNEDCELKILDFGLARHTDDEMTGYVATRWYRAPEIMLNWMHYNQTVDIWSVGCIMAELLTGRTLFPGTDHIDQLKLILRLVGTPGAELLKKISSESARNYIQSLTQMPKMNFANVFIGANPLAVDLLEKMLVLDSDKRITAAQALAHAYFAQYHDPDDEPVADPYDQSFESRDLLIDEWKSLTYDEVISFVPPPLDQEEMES
# assay summary: Inhibitory activity against p38-alpha kinase
Give pIC50 for every item shown.
pIC50 (log units): -log10 of the concentration in mol/L.

Provide only the value of recorded pIC50 for CC(C)Oc1ccccc1-c1cc(-c2ccc(Cl)cc2)[nH]c1-c1ccncc1
5.26

Provide only the value of recorded pIC50 for O=C(O)c1ccc(-c2cc(-c3ccc(F)cc3)c(-c3ccncc3)[nH]2)cc1
7.05

Provide only the value of recorded pIC50 for Fc1ccc(-c2cc(-c3ccc(F)cc3)c(-c3ccncc3)[nH]2)cc1
6.47

Provide only the value of recorded pIC50 for Fc1ccc(-c2cc(-c3ccc(Cl)cc3)[nH]c2-c2ccncc2)cc1
5.85

Provide only the value of recorded pIC50 for CCc1ccc(-c2cc(-c3ccc(F)cc3)c(-c3ccncc3)[nH]2)cc1
5.87

---

# assay summary: Concentration in plasma (systemic) following oral dose in mouse at 1 hr
# Assay type: ADME, organism-based
measured property: concentration at 1 h (µM)
Kindly answer with a numeric value in µM, unit omitted.

Provide only the value of recorded concentration at 1 h for CCCOc1ccc(Br)cc1-c1cc(-c2ccc(Cl)cc2)[nH]c1-c1ccncc1
15.2

---

# tested on: Mitogen-activated protein kinase 14 (Homo sapiens, UniProt Q16539)
# assay summary: Inhibitory activity against p38-alpha kinase
Give IC50 for every item shown.
Kindly answer with a numeric value in nM, unit omitted.

Provide only the value of recorded IC50 for Fc1ccc(-c2cc(-c3ccc(Cl)cc3Cl)[nH]c2-c2ccncc2)cc1
420

Provide only the value of recorded IC50 for Clc1ccc(-c2cc(-c3cccc(Br)c3)c(-c3ccncc3)[nH]2)cc1
80

Provide only the value of recorded IC50 for CC(C)COc1ccccc1-c1cc(-c2ccc(Cl)cc2)[nH]c1-c1ccncc1
3760

Provide only the value of recorded IC50 for Fc1ccc(-c2cc(-c3ccccc3)[nH]c2-c2ccncc2)cc1
800

---

# assay summary: Concentration in plasma (portal) following oral dose in rats at 2 hr
# Assay type: ADME, organism-based
# condition description: rat
measured property: concentration at 2 h (nM)
Kindly answer with a numeric value in nM, unit omitted.

Provide only the value of recorded concentration at 2 h for CCCOc1ccc(Br)cc1-c1cc(-c2ccc(Cl)cc2)[nH]c1-c1ccncc1
1400

---

Give Ratio for every item shown.
# assay summary: Selectivity ratio between the binding value of human glucagon receptor (GGR) with Mg+2 and the value of p38 kinase
Field format: numeric only.

Provide only the value of recorded Ratio for CC(C)Oc1ccccc1-c1cc(-c2ccc(Cl)cc2)[nH]c1-c1ccncc1
0.16

Provide only the value of recorded Ratio for Cc1ccc(-c2cc(-c3ccc(F)cc3)c(-c3ccncc3)[nH]2)cc1
1.3

Provide only the value of recorded Ratio for C=CCOc1ccccc1-c1cc(-c2ccc(Cl)cc2)[nH]c1-c1ccncc1
0.05

---

Give inhibition for every item shown.
# tested on: Glucagon receptor (Homo sapiens, UniProt P47871)
# Sequence (P47871 whole entry): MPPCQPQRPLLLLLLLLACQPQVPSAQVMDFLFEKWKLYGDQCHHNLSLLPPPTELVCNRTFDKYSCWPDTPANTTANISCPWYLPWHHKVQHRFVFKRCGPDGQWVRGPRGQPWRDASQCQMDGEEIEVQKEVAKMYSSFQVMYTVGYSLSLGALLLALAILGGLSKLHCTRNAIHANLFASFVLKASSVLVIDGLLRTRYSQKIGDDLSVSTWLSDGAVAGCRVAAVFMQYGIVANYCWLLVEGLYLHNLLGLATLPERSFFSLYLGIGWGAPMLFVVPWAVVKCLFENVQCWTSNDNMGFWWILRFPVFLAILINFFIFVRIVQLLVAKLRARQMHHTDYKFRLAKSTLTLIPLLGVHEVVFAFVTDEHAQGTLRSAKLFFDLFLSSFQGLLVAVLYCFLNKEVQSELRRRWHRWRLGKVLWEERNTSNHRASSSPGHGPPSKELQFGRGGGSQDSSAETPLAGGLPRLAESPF
# assay summary: Binding affinity towards glucagon receptor determined by reduction in binding of 125 I-glucagon to the human glucagon receptor (hGLUR) expressed on CHO cells in absence of Mg+2 at 2 uM
# Format: cell-based

Provide only the value of recorded inhibition for C[S+]([O-])c1ccc(-c2cc(-c3ccncc3)c(-c3ccc(F)cc3)[nH]2)cc1 (centres undefined)
31%

Provide only the value of recorded inhibition for CSc1ccc(-c2cc(-c3ccncc3)c(-c3ccc(F)cc3)[nH]2)cc1
0%

Provide only the value of recorded inhibition for C[S+]([O-])c1ccc(-c2nc(-c3ccc(F)cc3)c(-c3ccncc3)[nH]2)cc1 (centres undefined) [SB-203580]
18%

Provide only the value of recorded inhibition for CN1CCC(c2cc(-c3ccc(F)cc3)c(-c3ccncc3)[nH]2)CC1
7%

---

# assay summary: Concentration in plasma (systemic) following oral dose in mouse at 6 hr
# Format: ADME, organism-based
measured property: concentration at 6 h (µM)
Kindly answer with a numeric value in µM, unit omitted.

Provide only the value of recorded concentration at 6 h for CCCOc1ccc(Br)cc1-c1cc(-c2ccc(Cl)cc2)[nH]c1-c1ccncc1
13.1

---

# tested on: Mitogen-activated protein kinase 14 (Homo sapiens, UniProt Q16539)
# assay summary: Inhibitory activity against p38-alpha kinase
Give log10(IC50) for every item shown.
The common logarithm of IC50 in nM is what is listed.

Provide only the value of recorded log10(IC50) for Clc1ccc(-c2cc(-c3ccccc3)c(-c3ccncc3)[nH]2)cc1
2.32

Provide only the value of recorded log10(IC50) for COc1cccc(-c2cc(-c3ccc(Cl)cc3)[nH]c2-c2ccncc2)c1
2.62

Provide only the value of recorded log10(IC50) for C[S+]([O-])c1ccc(-c2cc(-c3ccc(F)cc3)c(-c3ccncc3)[nH]2)cc1 (stereo unspecified)
2.83

Provide only the value of recorded log10(IC50) for CSc1ccc(-c2cc(-c3ccc(F)cc3)c(-c3ccncc3)[nH]2)cc1
3.09

Provide only the value of recorded log10(IC50) for CCCCCCOc1ccccc1-c1cc(-c2ccc(Cl)cc2)[nH]c1-c1ccncc1
3.43

Provide only the value of recorded log10(IC50) for CCOc1ccccc1-c1cc(-c2ccc(Cl)cc2)[nH]c1-c1ccncc1
4.15

Provide only the value of recorded log10(IC50) for Nc1ccc(-c2cc(-c3ccc(F)cc3)c(-c3ccncc3)[nH]2)cc1
2.28

Provide only the value of recorded log10(IC50) for CCOC(=O)c1ccc(-c2cc(-c3ccc(F)cc3)c(-c3ccncc3)[nH]2)cc1
2.41

Provide only the value of recorded log10(IC50) for C[S+]([O-])c1ccc(-c2cc(-c3ccncc3)c(-c3ccc(F)cc3)[nH]2)cc1 (stereo unspecified)
0.72

Provide only the value of recorded log10(IC50) for COc1ccc(-c2cc(-c3ccc(F)cc3)c(-c3ccncc3)[nH]2)cc1
3.45

Provide only the value of recorded log10(IC50) for Fc1ccc(-c2cc[nH]c2-c2ccncc2)cc1
2.20

Provide only the value of recorded log10(IC50) for N#Cc1ccc(-c2cc(-c3ccc(F)cc3)c(-c3ccncc3)[nH]2)cc1
1.70

Provide only the value of recorded log10(IC50) for Cc1ccc(-c2cc(-c3ccc(F)cc3)c(-c3ccncc3)[nH]2)cc1
3.23

Provide only the value of recorded log10(IC50) for COc1ccc(-c2cc(-c3ccc(Cl)cc3)[nH]c2-c2ccncc2)cc1
3.06

Provide only the value of recorded log10(IC50) for CN1CCC(c2cc(-c3ccc(F)cc3)c(-c3ccncc3)[nH]2)CC1
1.30

Provide only the value of recorded log10(IC50) for COc1ccccc1-c1cc(-c2ccc(Cl)cc2)[nH]c1-c1ccncc1
3.42

Provide only the value of recorded log10(IC50) for CSc1ccc(-c2cc(-c3ccncc3)c(-c3ccc(F)cc3)[nH]2)cc1
1.64

---

# tested on: Glucagon receptor (Homo sapiens, UniProt P47871)
# assay summary: Binding affinity towards glucagon receptor determined by reduction in binding of [125I]glucagon to the human glucagon receptor (GGR) expressed on CHO cells in presence of Mg+2
# Type: cell-based
measured property: IC50 (nM)
Kindly answer with a numeric value in nM, unit omitted.

Provide only the value of recorded IC50 for CCOc1ccccc1-c1cc(-c2ccc(Cl)cc2)[nH]c1-c1ccncc1
500

Provide only the value of recorded IC50 for Fc1ccc(-c2cc(-c3ccc(Cl)cc3Cl)[nH]c2-c2ccncc2)cc1
950

Provide only the value of recorded IC50 for O=C(OCc1ccccc1)c1cc(-c2ccc(Cl)cc2)[nH]c1-c1ccncc1
1300

Provide only the value of recorded IC50 for Fc1ccc(-c2cc(-c3cccc(Cl)c3)[nH]c2-c2ccncc2)cc1
990

Provide only the value of recorded IC50 for CCCNc1ccccc1-c1cc(-c2ccc(Cl)cc2)[nH]c1-c1ccncc1
270

Provide only the value of recorded IC50 for N#Cc1ccc(-c2cc(-c3ccc(F)cc3)c(-c3ccncc3)[nH]2)cc1
4900

Provide only the value of recorded IC50 for Clc1ccc(-c2cc(-c3cccc(Br)c3)c(-c3ccncc3)[nH]2)cc1
1700

Provide only the value of recorded IC50 for COc1ccccc1-c1cc(-c2ccc(Cl)cc2)[nH]c1-c1ccncc1
500

Provide only the value of recorded IC50 for CC(C)COc1ccccc1-c1cc(-c2ccc(Cl)cc2)[nH]c1-c1ccncc1
200

Provide only the value of recorded IC50 for CCCOc1ccccc1-c1cc(-c2ccc(Cl)cc2)[nH]c1-c1ccncc1
140

Provide only the value of recorded IC50 for COc1cccc(-c2cc(-c3ccc(Cl)cc3)[nH]c2-c2ccncc2)c1
450

Provide only the value of recorded IC50 for Fc1ccc(-c2cc(-c3ccc(Cl)cc3)[nH]c2-c2ccncc2)cc1
800
